assay: Extended-duration intratracheal and oral pharmacokinetic study; format: in vivo, Wistar rats; conditions: Wistar, rat, plasma, inhaled or intranasal; intratracheal aerosol 5 mg/kg
readout: Cmax (ng/mL)
Number only, in ng/mL; omit the unit.

Tell me the measured Cmax of `Cc1ccc(=O)n(-c2ccccc2)c1` , please. 8800

====

Assay: Pharmacokinetics and tissue distribution (lung, plasma, heart, kidney) of co-solvent formulations, intratracheal bolus aerosol
Format: in vivo, Sprague-Dawley rats
Conditions: Sprague-Dawley, rat, heart, other: intratracheal bolus aerosol, 4 mg/kg, Pirfenidone, heart tissue, Mean, Group 2; 0 hr; about 4 mg/kg IT aerosol
Procedure: Selected formulations were prepared for pharmacokinetic analysis following aerosol delivery to rat lung. […] Formulations prepared for this study are outlined in Table 9. […] The sample was agitated until completely dissolved. […] Filtered samples were analyzed by HPLC.
readout: concentration at 0 h (ng/g)
Number only, in ng/g; omit the unit.

Tell me the measured concentration at 0 h of `Cc1ccc(=O)n(-c2ccccc2)c1` , please. 190

====

test: Pharmacokinetics and tissue distribution (lung, plasma, heart, kidney) of co-solvent formulations, intratracheal bolus aerosol; type: in vivo, Sprague-Dawley rats; conditions: Sprague-Dawley, rat, kidney, other: intratracheal bolus aerosol, 4 mg/kg, Pirfenidone, kidney tissue, Mean, Group 1; 0.0667 hr; about 4 mg/kg IT aerosol
readout: concentration at 4 min (ng/g)
Number only, in ng/g; omit the unit.

Tell me the measured concentration at 4 min of `Cc1ccc(=O)n(-c2ccccc2)c1` , please. 9880

====

Experiment: Pharmacokinetics and tissue distribution (lung, plasma, heart, kidney) of co-solvent formulations, intratracheal bolus aerosol
Format: in vivo, Sprague-Dawley rats
Conditions: Sprague-Dawley, rat, heart, other: intratracheal bolus aerosol (nebulizing catheter), 4 mg/kg, Pirfenidone, heart tissue, Mean, Group 6; 0.167 hr; about 4 mg/kg IT aerosol
Description: Selected formulations were prepared for pharmacokinetic analysis following aerosol delivery to rat lung. […] Formulations prepared for this study are outlined in Table 9. […] The sample was agitated until completely dissolved. […] Filtered samples were analyzed by HPLC.
readout: concentration at 0.167 hr (ng/g)
Number only, in ng/g; omit the unit.

Tell me the measured concentration at 0.167 hr of `Cc1ccc(=O)n(-c2ccccc2)c1` , please. 4950

====

assay: Pharmacokinetics and tissue distribution (lung, plasma, heart, kidney) of co-solvent formulations, intratracheal bolus aerosol; type: in vivo, Sprague-Dawley rats; conditions: Sprague-Dawley, rat, heart, other: intratracheal bolus aerosol (nebulizing catheter), 4 mg/kg, Pirfenidone, heart tissue, Mean, Group 1; 0.667 hr; about 4 mg/kg IT aerosol
readout: concentration at 0.667 hr (ng/g)
Number only, in ng/g; omit the unit.

Tell me the measured concentration at 0.667 hr of Cc1ccc(=O)n(-c2ccccc2)c1 [pirfenidone, 5-methyl-1-phenyl-2-(1H)-pyridone] , please. 1800

====

test: Pharmacokinetics and tissue distribution (lung, plasma, heart, kidney) of co-solvent formulations, intratracheal bolus aerosol; format: in vivo, Sprague-Dawley rats; details: Sprague-Dawley, rat, heart, other: intratracheal bolus aerosol (nebulizing catheter), 4 mg/kg, Pirfenidone, heart tissue, Mean, Group 2; 0.667 hr; about 4 mg/kg IT aerosol
readout: concentration at 0.667 hr (ng/g)
Number only, in ng/g; omit the unit.

Tell me the measured concentration at 0.667 hr of `Cc1ccc(=O)n(-c2ccccc2)c1` , please. 2190

====

Assay: Extended-duration intratracheal and oral pharmacokinetic study
Type: in vivo, Wistar rats
Details: Wistar, rat, plasma; oral gavage 100 mg/kg
Method: Previous intratracheal aerosol delivery (see Example 6) was performed as a single bolus instillation just above the first bifurcation of the lung. […] Plasma samples and entire lungs were taken at pre-dose, 2, 4, 6, 10, 30, 60 and 120 minutes post dosing. Materials were extracted and pirfenidone quantitated as mcg/mL plasma and μg/gram lung tissue.
readout: Cmax (ng/mL)
Number only, in ng/mL; omit the unit.

Tell me the measured Cmax of `Cc1ccc(=O)n(-c2ccccc2)c1` , please. 26300

====

experiment: Co-solvent and surfactant effects on pirfenidone saturation solubility; format: physicochemical; conditions: aqueous co-solvent/surfactant solvent system, pH 4.9, aqueous with cosolvent or surfactant or cyclodextrin, thermodynamic from solid, 4% EtOH, 0.1% CPB, 95.9% water, pH 4.9
readout: solubility (mg/mL)
Number only, in mg/mL; omit the unit.

Tell me the measured solubility of `Cc1ccc(=O)n(-c2ccccc2)c1` , please. 20.2

====

experiment: Pharmacokinetics and tissue distribution (lung, plasma, heart, kidney) of co-solvent formulations, intratracheal bolus aerosol; type: in vivo, Sprague-Dawley rats; conditions: Sprague-Dawley, rat, kidney, other: intratracheal bolus aerosol, 4 mg/kg, Pirfenidone, kidney tissue, Mean, Group 2; 0.0667 hr; about 4 mg/kg IT aerosol
readout: concentration at 4 min

Tell me the measured concentration at 4 min of Cc1ccc(=O)n(-c2ccccc2)c1 [pirfenidone, 5-methyl-1-phenyl-2-(1H)-pyridone] , please. 10800 ng/g

====

test: Co-solvent and surfactant effects on pirfenidone saturation solubility; format: physicochemical; conditions: aqueous co-solvent/surfactant solvent system, pH 4.6, aqueous with cosolvent or surfactant or cyclodextrin, thermodynamic from solid, 8% PG, 0.04% PS80, 92.0% water, pH 4.6
readout: solubility (mg/mL)
Number only, in mg/mL; omit the unit.

Tell me the measured solubility of `Cc1ccc(=O)n(-c2ccccc2)c1` , please. 23.4

====

test: Pharmacokinetics and tissue distribution (lung, plasma, heart, kidney) of co-solvent formulations, intratracheal bolus aerosol; assay type: in vivo, Sprague-Dawley rats; conditions: Sprague-Dawley, rat, kidney, other: intratracheal bolus aerosol, 4 mg/kg, Pirfenidone, kidney tissue, Mean, Group 2; 2.5 hr; about 4 mg/kg IT aerosol
readout: concentration at 2.5 h (ng/g)
Number only, in ng/g; omit the unit.

Tell me the measured concentration at 2.5 h of `Cc1ccc(=O)n(-c2ccccc2)c1` , please. 180

====

test: Co-solvent and surfactant effects on pirfenidone saturation solubility; format: physicochemical; settings: aqueous co-solvent/surfactant solvent system, pH 6.2, aqueous with cosolvent or surfactant or cyclodextrin, thermodynamic from solid, 0.1% CPB, 99.9% water, pH 6.2
readout: solubility
The reply should consist of the numeric value with the unit placed after it.

Tell me the measured solubility of `Cc1ccc(=O)n(-c2ccccc2)c1` , please. 20 mg/mL

====

Test: Pharmacokinetics and tissue distribution (lung, plasma, heart, kidney) of co-solvent formulations, intratracheal bolus aerosol
Format: in vivo, Sprague-Dawley rats
Conditions: Sprague-Dawley, rat, kidney, other: intratracheal bolus aerosol, 4 mg/kg, Pirfenidone, kidney tissue, Mean, Group 6; 0.667 hr; about 4 mg/kg IT aerosol
Method: Selected formulations were prepared for pharmacokinetic analysis following aerosol delivery to rat lung. […] Formulations prepared for this study are outlined in Table 9. […] The sample was agitated until completely dissolved. […] Filtered samples were analyzed by HPLC.
readout: concentration at 0.667 h

Tell me the measured concentration at 0.667 h of `Cc1ccc(=O)n(-c2ccccc2)c1` , please. 3530 ng/g

====

assay: Pharmacokinetics and tissue distribution (lung, plasma, heart, kidney) of co-solvent formulations, intratracheal bolus aerosol; type: in vivo, Sprague-Dawley rats; conditions: Sprague-Dawley, rat, heart, other: intratracheal bolus aerosol (nebulizing catheter), 4 mg/kg, Pirfenidone, heart tissue, Mean, Group 2; 0.333 hr; about 4 mg/kg IT aerosol
readout: concentration at 0.333 hr (ng/g)
Number only, in ng/g; omit the unit.

Tell me the measured concentration at 0.333 hr of `Cc1ccc(=O)n(-c2ccccc2)c1` , please. 3130

====

test: Extended-duration intratracheal and oral pharmacokinetic study; format: in vivo, Wistar rats; conditions: Wistar, rat, plasma, inhaled or intranasal; intratracheal aerosol 10 mg/kg
readout: Cmax (ng/mL)
Number only, in ng/mL; omit the unit.

Tell me the measured Cmax of `Cc1ccc(=O)n(-c2ccccc2)c1` , please. 22800

====

assay: Co-solvent and surfactant effects on pirfenidone saturation solubility; assay type: physicochemical; details: aqueous co-solvent/surfactant solvent system, pH 6.8, aqueous with cosolvent or surfactant or cyclodextrin, thermodynamic from solid, 0% EtOH, 16% PG, 84% phosphate buffer (5 mM), pH 6.8
readout: solubility (mg/mL)
Number only, in mg/mL; omit the unit.

Tell me the measured solubility of `Cc1ccc(=O)n(-c2ccccc2)c1` , please. 29.3

====

assay: Co-solvent and surfactant effects on pirfenidone saturation solubility; assay type: physicochemical; conditions: aqueous co-solvent/surfactant solvent system, pH 6.6, aqueous with cosolvent or surfactant or cyclodextrin, thermodynamic from solid, 4% EtOH, 8% PG, 0.04% PS80, 88.0% phosphate buffer (5 mM), pH 6.6
readout: solubility (mg/mL)
Number only, in mg/mL; omit the unit.

Tell me the measured solubility of `Cc1ccc(=O)n(-c2ccccc2)c1` , please. 29.4

====

assay: Co-solvent and surfactant effects on pirfenidone saturation solubility; format: physicochemical; conditions: aqueous co-solvent/surfactant solvent system, pH 5.8, aqueous with cosolvent or surfactant or cyclodextrin, thermodynamic from solid, 4% EtOH, 8% PG, 0.04% PS80, 88.0% water, pH 5.8;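 also: samples equilibrated by overnight agitation at ambient temperature, with solubility taken from the supernatant after undissolved solid was removed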
readout: solubility (mg/mL)
Number only, in mg/mL; omit the unit.

Tell me the measured solubility of `Cc1ccc(=O)n(-c2ccccc2)c1` , please. 28.9

Ref: patent US10028966B2
